Numbers sourced from patent US20150148520A1.

Target: T1, human IGF-1 receptor (human, UniProt P08069 31-1367)
T1 construct: whole, on cells; Phosphorylation assay: receptor transfected HEK293 cells; also called IGF-1
Experiment: SPA competition, [125I]-IGF-1, IGF-1R membranes
Bridges are numbered along the chain shown (N, C = ends). Roman numbers before positions name the chains, in order. Where no end group is shown, it is not given here.
Rule: activity (0.55 nM) under 8% gives Condition not met, otherwise Condition met.

INSERT INTO results (binder, answer_label) VALUES
  ('IGF-1 A: B (E10Y16L17)-E31E32 B-COOH (ligand, disulfide I:6-I:11, I:20-II:18, I:7-II:6; ends not checked) chain 1: GIVDECCFRSCDLRRLEMYCA-NH2 chain 2: GPETLCGAELVDALYLVCGDRGFYFNKPTEE-OH', 'Condition not met'),
  ('IGF-1 A: B (E10Y16L17) DPI (ligand, disulfide I:6-I:11, I:20-II:18, I:7-II:6; not fully specified) A chain: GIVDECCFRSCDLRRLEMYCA-NH2 B chain: GPETLCGAELVDALYLVCGDRGFY-NH2', 'Condition not met'),
  ('IGF-1 A: In B (1-5)-IGF-1 B (YL) (6-30) (ligand, disulfide I:6-I:11, I:20-II:19, I:7-II:7; not fully specified) A chain: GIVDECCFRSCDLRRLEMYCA-NH2 B chain: FVNQHLCGAELVDALYLVCGDRGFYFNKPT-NH2', 'Condition not met');

Query: Determine whether measured activity (0.55 nM) meets or exceeds 8% for IGF-1 A: B (H5D10Y16L17) DPI (ligand, disulfide I:6-I:11, I:20-II:18, I:7-II:6; ends not checked) chain 1: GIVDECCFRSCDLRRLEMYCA-NH2 chain 2: GPEHLCGADLVDALYLVCGDRGFY-NH2
Response: Condition met

Query: Determine whether measured activity (0.55 nM) meets or exceeds 8% for IGF-1 A: IGF-1 B (1-8)-In (9-17)-IGF-1 B (18-30) (ligand, disulfide I:6-I:11, I:20-II:18, I:7-II:6; ends not checked) chain 1: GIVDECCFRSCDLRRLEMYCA-NH2 chain 2: GPETLCGSHLVEALYLVCGDRGFYFNKPT-NH2
Response: Condition not met

Query: Determine whether measured activity (0.55 nM) meets or exceeds 8% for IGF-1 A: In (1-17)-IGF-1 B (18-30) (ligand, disulfide I:6-I:11, I:20-II:19, I:7-II:7; ends not checked) chain 1: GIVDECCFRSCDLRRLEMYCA-NH2 chain 2: FVNQHLCGSHLVEALYLVCGDRGFYFNKPT-NH2
Response: Condition not met

Query: Determine whether measured activity (0.55 nM) meets or exceeds 8% for IGF-1 A (H8 A9 N21): B(H5D10Y16L17) DPI A-COOH (ligand, disulfide I:6-I:11, I:20-II:18, I:7-II:6; ends not checked) chain 1: GIVDECCHASCDLRRLEMYCN-OH chain 2: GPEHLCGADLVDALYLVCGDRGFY-NH2
Response: Condition met

Query: Determine whether measured activity (0.55 nM) meets or exceeds 8% for IGF-1 A (H8 A9 N21): B (H5D10Y16L17 A22) DPI A-COOH (ligand, not fully specified (C-terminus); ends and bridges not checked) chain 1: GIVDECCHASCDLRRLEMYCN-OH chain 2: GPEHLCGADLVDALYLVCGDAGFY
Response: Condition not met
